- Tested on: UACC-62
- Assay method text: NCI tumour cell line growth inhibition, 48 h
Active and inactive are the calls of the source. No stated cut-off is given here; in the data, active = GI50 up to about 1.1 µM and inactive = higher. Square brackets hold non-standard residues; d marks the D form. Peptide text beside a SMILES is read from it. * marks the point of attachment. Boc = CC(C)(C)OC(=O)*; Lac = C[CH](O)C(=O)O; OBn = c1ccc(CO*)cc1
# key: entry, value: GI50
Measured property: GI50

* CC(OC(=O)C(Cc1ccccc1)NC(=O)C(Cc1ccccc1)NC(=O)OC(C)(C)C)C(=O)OCc1ccccc1 (stereo not drawn) (Boc-Phe-Phe-[Lac]-OBn; configuration not given here) | > 10 µM (inactive)
* CC(C)c1ccc(O)c(Cc2cc(C(C)C)cc(Cc3cc(C(C)C)ccc3O)c2O)c1 | 2.38 µM (inactive)
* S=C1CCSc2c(ccc3ccccc23)N1 | 93.8 µM (inactive)
* COC(=O)NCCc1n[nH]c2c1C(=O)C=C(Nc1ccccc1)C2=O | 17.3 µM (inactive)
* CN(C)CCNC(=O)c1cc2ccccc2c2nc3ccccc3nc12 | 2 µM (inactive)

---

- System: IGROV-1
- Assay method text: NCI tumour cell line growth inhibition, 48 h
Active and inactive are the calls of the source. Cut-off read from the data, not from the text of the source: active = GI50 up to about 1.1 µM and inactive = higher.
Outcome codes: active, inactive

• O=[N+]([O-])c1ccc(CSCc2ccc(Cl)cc2)cc1 = inactive
• Cc1nc2c(Br)cc(Br)cc2c(=O)n1-c1ccccc1N = inactive
• COC(=O)c1ccc(C=C(C#N)C#N)cc1 = inactive
• C[N+](C)(CCNc1ccc(NCC[N+](C)(C)Cc2ccc([N+](=O)[O-])cc2)c2c1C(=O)c1ccccc1C2=O)Cc1ccc([N+](=O)[O-])cc1 = inactive
• O=C(O)CSCC(=O)O = inactive
• NNC(=O)CC(=O)Nc1ccccc1F = inactive
• CCOC(=O)c1sc2nc(-c3ccccc3)nn2c1CBr = inactive
• BrCc1ccc2ccc3ccc(CBr)nc3c2n1 = inactive
• CN(Cc1cnc2nc(N)nc(N)c2n1)c1ccc(C(=O)NCCS(=O)(=O)O)cc1 = inactive
• Cc1n[nH]c(CC#N)n1 = inactive
• CCOC(=O)C#Cc1ccc(C#CC(=O)OCC)cc1 = inactive
• COc1ccc(-c2cc(=O)c3c(OC)c(OC)c(OC)c(OC)c3o2)cc1OC [NOBILETIN] = inactive
• CCOP(=O)(OCC)/C(=C/NC(=S)c1ccncc1)C(=O)OC = inactive
• O=[N+]([O-])c1cccc2nc3ccccc3c(NCCCCCNc3c4ccccc4nc4cccc([N+](=O)[O-])c34)c12 = active
• CC[C@H]1CC(=O)c2c(cc3c(c2O)C(=O)c2ccccc2C3=O)[C@@]1(C#N)C(=O)OC(C)(C)C = inactive
• Cc1cc(=O)oc2c1cc1ccc3cccc4ccc2c1c34 = inactive
• COCCOC(=O)NCn1cc(-c2ccccc2)nn1 = inactive
• CCOC(=O)c1c(-c2ccc(OC)cc2)c(C#N)c(=S)n(C2OC(COC(C)=O)C(OC(C)=O)C(OC(C)=O)C2OC(C)=O)c1-c1ccccc1 (stereo not drawn) = inactive
• COc1ccc(NC(=O)C(=O)c2c(O)c3ccc(O)cc3oc2=O)c([N+](=O)[O-])c1 = inactive
• Cc1cccc(/C=N/NC(=S)N2CCCCCC2)n1 = active
• Cc1cc(=O)oc2cc(OS(C)(=O)=O)ccc12 = inactive
• COc1ccc(C=C2C(=O)NC(=S)NC2=O)c2ccccc12 = inactive
• CN1C(=O)[C@H](c2c[nH]c3ccccc23)[C@H](c2c[nH]c3ccccc23)C1=O = inactive
• CCCCCCCC(=O)NC(C)(C)C(=O)NCC(=O)NC(CC(C)C)C(=O)NC(C)(C)C(=O)NCC(=O)NCC(=O)NC(CC(C)C)C(=O)NC(C)(C)C(=O)NCC(=O)NC(C(=O)NC(CO)CC(C)C)C(C)CC (stereo not drawn) = inactive
• Cn1cc2c(=O)n3ncn(-c4ccc(Br)cc4)c3nc2n1 = inactive
• CC1CC(C[N+](=O)[O-])CC2(C1)OCCO2 (stereo not drawn) = inactive
• CC1=NN(c2ccccc2)C(=O)C1/N=N/c1ccc(Br)cc1C (stereo not drawn) = inactive
• CC(C)(C)NCCC(O)c1cc(C(F)(F)F)nc2c(C(F)(F)F)cccc12 (stereo not drawn) = inactive
• O=c1[nH]c2[nH]c(-c3ccc(Br)cc3)cc2c2ccccc12 = inactive
• COc1cccc(/C=C/C2=NN(c3cccc(S(=O)(=O)O)c3)C3(C2)SCC(=O)N3c2nc3ccccc3s2)c1 (stereo not drawn) = inactive
• CCN(CC)CC(O)CNc1ccc(NCC2CO2)c2c1C(=O)c1ccccc1C2=O (stereo not drawn) = inactive
• COC(=O)c1ccccc1C1CN=NC12Cc1cc(C)cc(C)c1C2=O (stereo not drawn) = inactive
• CC1CC(N)=Nc2ccccc2N1Cc1ccccc1 (stereo not drawn) = inactive
• COc1cc(C2c3cc4c(cc3C3OC[C@@H]2C3CO)OCO4)cc(OC)c1OC (stereo partly drawn) = inactive
• COc1ccc(SCc2cc(OC)c(OC)c(OC)c2)cc1OC = inactive
• CCOP(=O)(OCC)/C(=C/c1ccccc1)CC(C)=O = inactive
• CCN1C2=NC(=O)N(C)C(=O)C2(Cl)C(C(SC)S(=O)(=O)c2ccc(C)cc2)c2ccccc21 (stereo not drawn) = inactive
• CC(C)C(=O)/C=C/c1ccc(Cl)c(Cl)c1 = inactive
• O=C(N/C=C1\C(=O)Oc2ccccc2C1=O)Nc1ccccc1 = inactive
• O=C(c1ccco1)N1CCCN(C(=O)c2ccco2)C1=S = inactive
• O=C1CCN2C(=N1)Sc1ccccc12 = inactive
• CCCCCCN1CCc2c(C)c(C#N)c3nc4ccccc4n3c21 = inactive
• O=C(Cc1ccc(F)cc1)NC1=C(Cl)C(=O)c2ccccc2C1=O = inactive
